- tested_system: T1, Zbed4 (mouse (cDNA from mouse retinal RNA), UniProt Q80WQ9 1-1168)
- T1 sequence: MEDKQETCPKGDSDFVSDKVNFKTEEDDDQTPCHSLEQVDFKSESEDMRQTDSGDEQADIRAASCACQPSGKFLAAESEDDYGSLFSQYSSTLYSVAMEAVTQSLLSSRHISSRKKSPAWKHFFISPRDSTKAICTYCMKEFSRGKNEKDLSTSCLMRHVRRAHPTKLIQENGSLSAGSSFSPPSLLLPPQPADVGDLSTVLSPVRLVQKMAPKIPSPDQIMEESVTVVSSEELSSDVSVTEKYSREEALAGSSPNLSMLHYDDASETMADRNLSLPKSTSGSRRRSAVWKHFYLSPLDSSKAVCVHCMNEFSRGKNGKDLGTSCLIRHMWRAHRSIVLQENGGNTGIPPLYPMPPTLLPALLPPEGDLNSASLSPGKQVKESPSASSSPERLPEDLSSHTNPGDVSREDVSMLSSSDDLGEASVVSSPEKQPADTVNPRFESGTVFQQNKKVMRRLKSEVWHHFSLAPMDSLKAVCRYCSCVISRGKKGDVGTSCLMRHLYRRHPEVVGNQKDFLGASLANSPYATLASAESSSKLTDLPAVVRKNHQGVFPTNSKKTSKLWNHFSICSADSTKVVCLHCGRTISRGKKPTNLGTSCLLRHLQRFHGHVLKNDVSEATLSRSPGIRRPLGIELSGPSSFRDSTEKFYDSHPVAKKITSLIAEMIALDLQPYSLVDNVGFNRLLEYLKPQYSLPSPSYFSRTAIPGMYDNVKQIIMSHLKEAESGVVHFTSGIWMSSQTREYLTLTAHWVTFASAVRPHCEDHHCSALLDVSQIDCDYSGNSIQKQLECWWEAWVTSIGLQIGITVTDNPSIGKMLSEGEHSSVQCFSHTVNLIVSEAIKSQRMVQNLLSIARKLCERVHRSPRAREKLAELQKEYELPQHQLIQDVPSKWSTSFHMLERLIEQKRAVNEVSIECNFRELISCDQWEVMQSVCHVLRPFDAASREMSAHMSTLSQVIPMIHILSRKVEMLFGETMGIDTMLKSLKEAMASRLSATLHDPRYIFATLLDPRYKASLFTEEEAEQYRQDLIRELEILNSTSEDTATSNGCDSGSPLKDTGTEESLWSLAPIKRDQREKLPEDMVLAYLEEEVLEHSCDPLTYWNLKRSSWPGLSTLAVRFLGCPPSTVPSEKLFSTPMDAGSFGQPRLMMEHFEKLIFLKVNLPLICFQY
- assay: EMSA; 20 ug Zbed4, 0.5 nM oligo in 20 mM HEPES pH 7.5, 150 mM NaCl, 5 mM beta-mercaptoethanol, 5% glycerol, 0.5 mM ascorbic acid, 0.5 mM propyl gallate, 10 uM ZnSO4
- test_context: protein: recombinant; tags: C-terminal His8
result_type: binding result

Below, 5 binders whose answers are already recorded.
binder	binding result
AAAAAGGGGCGGGGCAAAAA (ssDNA) [GC-box1]	binds
UUUUUCCCCCCCCCCUUUUU (ssRNA) [poly-ribo-C]	no binding
TTTTTTTTTTTTTTTTTTT (ssDNA) [poly-T (called 20-mer, 19 T printed)]	no binding
UUUUUGGGGGGGGGGUUUUU (ssRNA) [poly-ribo-G]	binds
AAAAATGGGCGGAATAAAAA (ssDNA) [GC-box2]	no binding

We next turn to a different binder, shown below.
GET /values?readout=binding result&item= AAAAAAAAAAAAAAAAAAAA (ssDNA) [poly-A (A20)]
no binding
